Reference source: ChEMBL document CHEMBL6120988

Tested on: HeLa
Experiment: Cytotoxicity against human Hela cells assessed as cell viability by MTT assay
Assay type: functional, cell-based
Label key: 1 (yes) means IC50 under 3000 nM; 0 (no) means IC50 of 3000 nM or more.

- compound: "C[C@H]1[C@H](OC(=O)CCC(=O)OCCCOC(=O)c2cc(O)c3c(c2)C(=O)c2cccc(O)c2C3=O)O[C@@H]2O[C@@]3(C)CC[C@H]4[C@H](C)CC[C@@H]1[C@@]24OO3"
  answer_label: "1 (yes)"
- compound: "C[C@H]1[C@H](OC(=O)CCC(=O)OCCOC(=O)c2cc(O)c3c(c2)C(=O)c2cccc(O)c2C3=O)O[C@@H]2O[C@@]3(C)CC[C@H]4[C@H](C)CC[C@@H]1[C@@]24OO3"
  answer_label: "1 (yes)"
- compound: "C[C@H]1[C@H](OC(=O)CCC(=O)O)O[C@@H]2O[C@@]3(C)CC[C@H]4[C@H](C)CC[C@@H]1[C@@]24OO3 [ARTESUNATE]"
  answer_label: "0 (no)"
- compound: "C[C@H]1[C@H](OC(=O)CCC(=O)OCCCCOC(=O)c2cc(O)c3c(c2)C(=O)c2cccc(O)c2C3=O)O[C@@H]2O[C@@]3(C)CC[C@H]4[C@H](C)CC[C@@H]1[C@@]24OO3"
  answer_label: "1 (yes)"
- compound: "O=C(O)c1cc(O)c2c(c1)C(=O)c1cccc(O)c1C2=O"
  answer_label: "0 (no)"
- compound: "C[C@H]1[C@H](OC(=O)CCC(=O)OCCCCCOC(=O)c2cc(O)c3c(c2)C(=O)c2cccc(O)c2C3=O)O[C@@H]2O[C@@]3(C)CC[C@H]4[C@H](C)CC[C@@H]1[C@@]24OO3"
  answer_label: "1 (yes)"
- compound: "C[C@H]1[C@H](OC(=O)CCC(=O)OCCCCCCOC(=O)c2cc(O)c3c(c2)C(=O)c2cccc(O)c2C3=O)O[C@@H]2O[C@@]3(C)CC[C@H]4[C@H](C)CC[C@@H]1[C@@]24OO3"
  answer_label: "0 (no)"
